Tested on: 156681-154-R-J1-PDC tumor spheroids, viability % test/control
Test: Anticancer human tumor 156681-154-R-J1-PDC patient-derived melanoma cell line growth inhibition [TAK]
Details: curve of first compound; second compound 9.49 µM; spheroids with HUVEC and MSC
Value Kind: IC50

>>> value_observed("COC1CC2CCC(C)C(O)(O2)C(=O)C(=O)N2CCCCC2C(=O)OC(C(C)CC2CCC(OCCO)C(OC)C2)CC(=O)C(C)C=C(C)C(O)C(OC)C(=O)C(C)CC(C)C=CC=CC=C1C (stereo not drawn) + CC(C)NCC(C(=O)N1CCN(c2ncnc3c2C(C)CC3O)CC1)c1ccc(Cl)cc1")
"< 0.316 nM"
>>> value_observed("Cc1nc(NC(=O)N2CCCC2C(N)=O)sc1-c1ccnc(C(C)(C)C(F)(F)F)c1 (stereo not drawn) + CC(C)NCC(C(=O)N1CCN(c2ncnc3c2C(C)CC3O)CC1)c1ccc(Cl)cc1")
"< 31.6 nM"
>>> value_observed("CC(C)CC(NC(=O)C(Cc1ccccc1)NC(=O)c1cnccn1)B(O)O (stereo not drawn) + CC(C)NCC(C(=O)N1CCN(c2ncnc3c2C(C)CC3O)CC1)c1ccc(Cl)cc1")
"< 0.0316 nM"

----------
Documented viability, T/C across a set of compounds
System: 156681-154-R-J1-PDC tumor spheroids, viability % test/control
Experiment: Anticancer human tumor 156681-154-R-J1-PDC cell line growth inhibition [TAK];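 note: spheroids exposed to compounds for 7 days before the endpoint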
Conditions: second compound 3 µM; first compound 0.316 µM; stronger effect = lower value; spheroids with HUVEC and MSC
Value Kind: viability, T/C (%)

>>> value_observed("Cc1nc(NC(=O)N2CCCC2C(N)=O)sc1-c1ccnc(C(C)(C)C(F)(F)F)c1 (centres undefined) + CC(C)NCC(C(=O)N1CCN(c2ncnc3c2C(C)CC3O)CC1)c1ccc(Cl)cc1")
61.5
>>> value_observed("CCCS(=O)(=O)Nc1ccc(F)c(C(=O)c2c[nH]c3ncc(-c4ccc(Cl)cc4)cc23)c1F + CC(C)NCC(C(=O)N1CCN(c2ncnc3c2C(C)CC3O)CC1)c1ccc(Cl)cc1")
83
>>> value_observed("CC(C)(C)c1nc(-c2cccc(NS(=O)(=O)c3c(F)cccc3F)c2F)c(-c2ccnc(N)n2)s1 + CC(C)NCC(C(=O)N1CCN(c2ncnc3c2C(C)CC3O)CC1)c1ccc(Cl)cc1")
26.1
>>> value_observed("COc1c(OCCCN2CCOCC2)ccc2c3n(c(=NC(=O)c4cnc(N)nc4)nc12)CCN3 + CC(C)NCC(C(=O)N1CCN(c2ncnc3c2C(C)CC3O)CC1)c1ccc(Cl)cc1")
3.81

----------
Tested on: 156681-154-R-J1-PDC tumor spheroids, viability % test/control
Assay: Anticancer human tumor 156681-154-R-J1-PDC cell line growth inhibition [TAK];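 note: spheroids exposed to compounds for 7 days before the endpoint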
Conditions: second compound 0.3 µM; first compound 0.00316 µM; stronger effect = lower value; spheroids with HUVEC and MSC
Value Kind: viability, T/C (%)

>>> value_observed("COc1c(OCCCN2CCOCC2)ccc2c3n(c(=NC(=O)c4cnc(N)nc4)nc12)CCN3 + CC(C)NCC(C(=O)N1CCN(c2ncnc3c2C(C)CC3O)CC1)c1ccc(Cl)cc1")
94.6
>>> value_observed("COC1CC2CCC(C)C(O)(O2)C(=O)C(=O)N2CCCCC2C(=O)OC(C(C)CC2CCC(OCCO)C(OC)C2)CC(=O)C(C)C=C(C)C(O)C(OC)C(=O)C(C)CC(C)C=CC=CC=C1C (stereo not given) + CC(C)NCC(C(=O)N1CCN(c2ncnc3c2C(C)CC3O)CC1)c1ccc(Cl)cc1")
65.6
>>> value_observed("CC(C)n1nc(-c2ccc3oc(N)nc3c2)c2c(N)ncnc21 + CC(C)NCC(C(=O)N1CCN(c2ncnc3c2C(C)CC3O)CC1)c1ccc(Cl)cc1")
84.1
>>> value_observed("CC(C)CC(NC(=O)CNC(=O)c1cc(Cl)ccc1Cl)B1OC(=O)CC(CC(=O)O)(C(=O)O)O1 (stereo not given) + CC(C)NCC(C(=O)N1CCN(c2ncnc3c2C(C)CC3O)CC1)c1ccc(Cl)cc1")
94.9
>>> value_observed("CC(C)CC(NC(=O)C(Cc1ccccc1)NC(=O)c1cnccn1)B(O)O (stereo not given) + CC(C)NCC(C(=O)N1CCN(c2ncnc3c2C(C)CC3O)CC1)c1ccc(Cl)cc1")
23.9

----------
Test system: 156681-154-R-J1-PDC tumor spheroids, viability % test/control
Test: Anticancer human tumor 156681-154-R-J1-PDC cell line growth inhibition [TAK];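 note: spheroids exposed to compounds for 7 days before the endpoint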
Conditions: curve of first compound; second compound 9.49 µM; spheroids with HUVEC and MSC
pIC50: −log10 of the molar value.
compounds and their reported pIC50
Value Kind: pIC50

>>> value_observed("CC(C)(C)c1nc(-c2cccc(NS(=O)(=O)c3c(F)cccc3F)c2F)c(-c2ccnc(N)n2)s1 + CC(C)NCC(C(=O)N1CCN(c2ncnc3c2C(C)CC3O)CC1)c1ccc(Cl)cc1")
"> 7.50"
>>> value_observed("CC(=O)Nc1cccc(-n2c(=O)n(C3CC3)c(=O)c3c(Nc4ccc(I)cc4F)n(C)c(=O)c(C)c32)c1 + CC(C)NCC(C(=O)N1CCN(c2ncnc3c2C(C)CC3O)CC1)c1ccc(Cl)cc1")
"> 10.02"
>>> value_observed("Cn1cnc2c(F)c(Nc3ccc(Br)cc3Cl)c(C(=O)NOCCO)cc21 + CC(C)NCC(C(=O)N1CCN(c2ncnc3c2C(C)CC3O)CC1)c1ccc(Cl)cc1")
"> 8.02"
>>> value_observed("CC(C)CC(NC(=O)CNC(=O)c1cc(Cl)ccc1Cl)B1OC(=O)CC(CC(=O)O)(C(=O)O)O1 (configuration not stated) + CC(C)NCC(C(=O)N1CCN(c2ncnc3c2C(C)CC3O)CC1)c1ccc(Cl)cc1")
"> 9.50"
>>> value_observed("CC(C)n1nc(-c2ccc3oc(N)nc3c2)c2c(N)ncnc21 + CC(C)NCC(C(=O)N1CCN(c2ncnc3c2C(C)CC3O)CC1)c1ccc(Cl)cc1")
"> 9.50"
>>> value_observed("COc1c(OCCCN2CCOCC2)ccc2c3n(c(=NC(=O)c4cnc(N)nc4)nc12)CCN3 + CC(C)NCC(C(=O)N1CCN(c2ncnc3c2C(C)CC3O)CC1)c1ccc(Cl)cc1")
"> 8.50"
>>> value_observed("CCCS(=O)(=O)Nc1ccc(F)c(C(=O)c2c[nH]c3ncc(-c4ccc(Cl)cc4)cc23)c1F + CC(C)NCC(C(=O)N1CCN(c2ncnc3c2C(C)CC3O)CC1)c1ccc(Cl)cc1")
"> 6.50"

----------
Parameter viability, T/C: see the listing below.
Tested on: 156681-154-R-J1-PDC tumor spheroids, viability % test/control
Assay: Anticancer human tumor 156681-154-R-J1-PDC cell line growth inhibition [TAK];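 note: spheroids exposed to compounds for 7 days before the endpoint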
Details: second compound 9.49 µM; first compound 0.000316 µM; stronger effect = lower value; spheroids with HUVEC and MSC
Value Kind: viability, T/C (%)

>>> value_observed("CC(C)n1nc(-c2ccc3oc(N)nc3c2)c2c(N)ncnc21 + CC(C)NCC(C(=O)N1CCN(c2ncnc3c2C(C)CC3O)CC1)c1ccc(Cl)cc1")
39.9
>>> value_observed("CC(C)CC(NC(=O)CNC(=O)c1cc(Cl)ccc1Cl)B1OC(=O)CC(CC(=O)O)(C(=O)O)O1 (centres undefined) + CC(C)NCC(C(=O)N1CCN(c2ncnc3c2C(C)CC3O)CC1)c1ccc(Cl)cc1")
43.3
>>> value_observed("COC1CC2CCC(C)C(O)(O2)C(=O)C(=O)N2CCCCC2C(=O)OC(C(C)CC2CCC(OCCO)C(OC)C2)CC(=O)C(C)C=C(C)C(O)C(OC)C(=O)C(C)CC(C)C=CC=CC=C1C (centres undefined) + CC(C)NCC(C(=O)N1CCN(c2ncnc3c2C(C)CC3O)CC1)c1ccc(Cl)cc1")
31.6
>>> value_observed("CC(C)CC(NC(=O)C(Cc1ccccc1)NC(=O)c1cnccn1)B(O)O (centres undefined) + CC(C)NCC(C(=O)N1CCN(c2ncnc3c2C(C)CC3O)CC1)c1ccc(Cl)cc1")
37.8

----------
System: 156681-154-R-J1-PDC tumor spheroids, viability % test/control
Experiment: Anticancer human tumor 156681-154-R-J1-PDC cell line growth inhibition [TAK]; active = viability on the fitted dose curve at most 10% of control; inactive = the rest;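 note: spheroids exposed to compounds for 7 days before the endpoint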
Conditions: second compound 0.949 µM; first compound 0.01 µM; spheroids with HUVEC and MSC
Classes used: yes (1) = active, no (0) = inactive

>>> class_name("COc1c(OCCCN2CCOCC2)ccc2c3n(c(=NC(=O)c4cnc(N)nc4)nc12)CCN3 + CC(C)NCC(C(=O)N1CCN(c2ncnc3c2C(C)CC3O)CC1)c1ccc(Cl)cc1")
"no (0)"
>>> class_name("CC(C)CC(NC(=O)C(Cc1ccccc1)NC(=O)c1cnccn1)B(O)O (stereo not given) + CC(C)NCC(C(=O)N1CCN(c2ncnc3c2C(C)CC3O)CC1)c1ccc(Cl)cc1")
"yes (1)"
>>> class_name("CC(C)n1nc(-c2ccc3oc(N)nc3c2)c2c(N)ncnc21 + CC(C)NCC(C(=O)N1CCN(c2ncnc3c2C(C)CC3O)CC1)c1ccc(Cl)cc1")
"no (0)"
>>> class_name("COC1CC2CCC(C)C(O)(O2)C(=O)C(=O)N2CCCCC2C(=O)OC(C(C)CC2CCC(OCCO)C(OC)C2)CC(=O)C(C)C=C(C)C(O)C(OC)C(=O)C(C)CC(C)C=CC=CC=C1C (stereo not given) + CC(C)NCC(C(=O)N1CCN(c2ncnc3c2C(C)CC3O)CC1)c1ccc(Cl)cc1")
"no (0)"
>>> class_name("CC(C)CC(NC(=O)CNC(=O)c1cc(Cl)ccc1Cl)B1OC(=O)CC(CC(=O)O)(C(=O)O)O1 (stereo not given) + CC(C)NCC(C(=O)N1CCN(c2ncnc3c2C(C)CC3O)CC1)c1ccc(Cl)cc1")
"no (0)"
